- target under test: T1, human B1R C-terminally tagged with FLAG (hB1R-FLAG) (human, UniProt P46663 1-353)
- T1 construct: also called human B1R-FLAG; bradykinin B1 receptor; not shown: FLAG, C-terminal, kept
- T1 sequence (looked up): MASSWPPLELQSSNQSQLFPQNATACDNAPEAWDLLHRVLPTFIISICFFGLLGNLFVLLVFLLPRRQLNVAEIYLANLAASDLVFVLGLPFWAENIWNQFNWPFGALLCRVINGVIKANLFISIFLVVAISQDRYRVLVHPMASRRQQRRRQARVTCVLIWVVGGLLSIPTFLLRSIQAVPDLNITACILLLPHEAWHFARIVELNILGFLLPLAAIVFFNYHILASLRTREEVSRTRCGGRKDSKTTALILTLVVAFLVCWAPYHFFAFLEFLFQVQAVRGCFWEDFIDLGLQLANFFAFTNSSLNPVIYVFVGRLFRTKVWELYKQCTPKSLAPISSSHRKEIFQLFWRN
- procedure details: radioligand binding; competition of dilutions of a producer-cell lysate of known EGFP-S4-P1 concentration (GFP ELISA) with 1 nM [^3H]Lys-des-Arg^9-BK (bought radioligand) on intact HEK 293a cells expressing hB1R-FLAG; Ki by the Cheng-Prusoff correction
- cond: partners not purified
recorded metric: IC50 (nM)
Give the value in nM but do not write nM after it.

Give reported IC50 value for NGNGNGNGNGNGNGNGNGNGNGNGNGNGNGKRPPGFSPF (ligand, also called EGFP-(Asn-Gly)15-Lys-des-Arg^9-BK) [EGFP-S4-P1 (EGFP-(NG)15-Lys-des-Arg^9-BK)]
25.5

// data source = paper PMC4742067
